I'd appreciate it if you could supply viability, T/C values for the items below.
# Tested on: 885724-159-R-J1-PDC complex spheroid viability;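 also: spheroids exposed to compounds for 7 days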
# assay.details: Anticancer human tumor 885724-159-R-J1-PDC patient-derived pancreatic adenocarcinoma cell line growth inhibition [POLQ]
# assay.context: second compound 0.1 µM; first compound 0.316 µM; stronger effect = lower value
Give bare numbers, in %.

Here are 2 molecules together with their reported answers.
CCc1c2c(nc3ccc(O)cc13)-c1cc3c(c(=O)n1C2)COC(=O)[C@]3(O)CC + Nc1ccc(C#CCN(C(=O)Cc2ncc(C(F)(F)F)cc2C(F)(F)F)c2ccc(F)cc2)nn1 : 33.2
CC1COCCN1c1cc(C2(O)CC3CCC(C2)O3)c2cnn(-c3ccn[nH]3)c2n1 (stereo not drawn) + COC1C(OC(N)=O)C(O)C(Oc2ccc3c(O)c(NC(=O)c4ccc(O)c(CC=C(C)C)c4)c(=O)oc3c2C)OC1(C)C : 40

The record that follows has no viability, T/C shown yet.
response.value for CCCS(=O)(=O)Nc1ccc(F)c(C(=O)c2c[nH]c3ncc(-c4ccc(Cl)cc4)cc23)c1F + COC1C(OC(N)=O)C(O)C(Oc2ccc3c(O)c(NC(=O)c4ccc(O)c(CC=C(C)C)c4)c(=O)oc3c2C)OC1(C)C (field: viability, T/C) = 130
